Values compiled from patent US20080113383A1.

target: EGLN3 (Homo sapiens, UniProt Q9H6Z9); assay: Standard reaction (I): EGLN enzyme activity with hydroxylatable peptide substrate, 14CO2 release from 2-oxo[1-14C]glutaric acid; assay type: biochemical
Sequence (Q9H6Z9 whole entry): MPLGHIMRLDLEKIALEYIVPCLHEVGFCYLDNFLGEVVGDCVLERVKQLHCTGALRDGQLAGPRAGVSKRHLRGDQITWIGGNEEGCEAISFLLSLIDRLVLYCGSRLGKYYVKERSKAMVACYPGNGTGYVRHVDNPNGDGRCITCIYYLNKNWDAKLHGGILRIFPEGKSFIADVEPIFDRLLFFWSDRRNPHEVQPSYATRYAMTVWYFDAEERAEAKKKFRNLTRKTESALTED
Where no end group is shown, it is not given here.
PARAMETER MEASURED: hydroxylation of peptide by EGLN3

# SUBSTANCE, SYSTEM, EXPERIMENTAL RESULT
records = [
    ("DTDLDWEAVSpYIPADDDFQ (DTDLDWEAVSPYIPADDDFQ; not fully specified (residue 11); printed as DTDLDWEAVSpYIPADDDFQ) [SEQ ID NO 91]", "EGLN3 (Homo sapiens, UniProt Q9H6Z9)", "readily hydroxylated"),
    ("DTDLDYEMIApYIPADDDFQ (DTDLDYEMIAPYIPADDDFQ; not fully specified (residue 11); printed as DTDLDYEMIApYIPADDDFQ) [SEQ ID NO 89]", "EGLN3 (Homo sapiens, UniProt Q9H6Z9)", "readily hydroxylated"),
    ("DTDLDWEMVApYIPADDDFQ (DTDLDWEMVAPYIPADDDFQ; not fully specified (residue 11); printed as DTDLDWEMVApYIPADDDFQ) [SEQ ID NO 92]", "EGLN3 (Homo sapiens, UniProt Q9H6Z9)", "readily hydroxylated"),
    ("DTDLDWEMVSpYIPADDDFQ (DTDLDWEMVSPYIPADDDFQ; not fully specified (residue 11); printed as DTDLDWEMVSpYIPADDDFQ) [SEQ ID NO 90]", "EGLN3 (Homo sapiens, UniProt Q9H6Z9)", "readily hydroxylated"),
]
